- target.desc: MC4 receptor (MC4R) (Homo sapiens, UniProt P32245)
- Construct: expressed in transfected cells; host or cells: CHO-CRE MC4R cells (membranes)
- Sequence (P32245 whole entry): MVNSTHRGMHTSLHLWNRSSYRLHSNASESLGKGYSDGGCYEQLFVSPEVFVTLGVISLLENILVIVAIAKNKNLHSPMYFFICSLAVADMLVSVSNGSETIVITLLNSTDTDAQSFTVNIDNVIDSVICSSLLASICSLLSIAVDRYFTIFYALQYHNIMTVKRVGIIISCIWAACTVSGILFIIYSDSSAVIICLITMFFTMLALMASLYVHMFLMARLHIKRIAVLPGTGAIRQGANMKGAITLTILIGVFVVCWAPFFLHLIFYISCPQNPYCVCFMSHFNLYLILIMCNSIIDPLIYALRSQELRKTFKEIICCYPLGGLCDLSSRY
- assay.procedure: Nle4, D-Phe7-α-MSH inhibition at the MC4 receptor (SPA competition binding vs [125I] Nle4, D-Phe7-α-MSH)
- applied.conditions: vs 0.06 nM [125I] Nle4, D-Phe7-α-MSH, CHO-CRE MC4R cell membranes
pKi: −log10 of the molar value.
parameter.measured: pKi

{"molecule": "COc1ccc(C2(O)C(C)CN(C(=O)C3CN(c4ccc(=O)n(C)n4)CC3c3ccc(Cl)cn3)CC2C)cc1 (centres unmarked)", "pKi": 6.60}
{"molecule": "CC1CN(C(=O)C2CN(c3cncc(F)c3)CC2c2ccc(Cl)cn2)CC(C)C1(O)c1ccc(F)cc1 (centres unmarked)", "pKi": 7.96}
{"molecule": "C[C@@H]1CN(C(=O)[C@@H]2CN(c3ccc(C#N)nn3)C[C@H]2c2ccc(Cl)cn2)C[C@H](C)[C@@]1(O)c1ccc(F)cc1", "pKi": 7.57}
{"molecule": "C[C@@H]1CN(C(=O)[C@@H]2CN(c3ccc(C#N)nn3)C[C@H]2c2ccc(F)cn2)C[C@H](C)[C@@]1(O)c1ccc(Cl)cc1", "pKi": 6.82}
{"molecule": "CC1CN(C(=O)C2CN(c3ccc(=O)n(C)n3)CC2c2ccc(Cl)cn2)CC(C)C1(O)c1ccc(F)c(F)c1 (centres unmarked)", "pKi": 7.07}

P. C[C@@H]1CN(C(=O)[C@@H]2CN(c3ccc(=O)n(C)n3)C[C@H]2c2ccc(Cl)cn2)C[C@H](C)[C@@]1(O)c1ccc(Cl)cn1
Q. C[C@@H]1CN(C(=O)[C@@H]2CN(c3ccc(=O)n(C)n3)C[C@H]2c2ccc(Cl)cn2)C[C@H](C)[C@@]1(O)C1CCCCC1
R. CC1CN(C(=O)C2CN(c3ccc(=O)n(C)n3)CC2c2ccc(Cl)cn2)CC(C)C1(O)c1ccc(Cl)cc1 (centres unmarked)
Exercise: Rank by pKi (largest to smallest). The labels, placed in the requested order, form the answer.
Key: R, Q, P

====

- target.desc: CYP3A4 (Homo sapiens)
- Construct: utilizes human liver microsomes together with isoform-specific clinical drug probes; from tissue; host or cells: human liver microsomes
- assay.procedure: High density drug-drug interactions (DDI) 3 μM cocktail screen in human liver microsomes
- Assay type: in vitro ADME
- applied.conditions: 3 uM test compound, pooled human liver microsomes, probe midazolam 2 μM; read-out: % Inhibition of 3A4 metabolism at 3 uM
parameter.measured: inhibition at 3 μM (%)

{"compound": "C[C@@H]1CN(C(=O)[C@@H]2CN(c3cncc(F)c3)C[C@H]2c2ccc(Cl)cn2)C[C@H](C)[C@@]1(O)c1ccccn1", "inhibition at 3 μM / %": 94}

P. CC1CN(C(=O)C2CN(c3ccc(=O)n(C)n3)CC2c2ccc(F)cn2)CC(C)C1(O)c1ccc(F)cc1 (stereo not drawn)
Q. C[C@@H]1CN(C(=O)[C@@H]2CN(c3ccc(Cl)nn3)C[C@H]2c2ccc(F)cn2)C[C@H](C)[C@@]1(O)c1ccc(Cl)cc1
Exercise: Could you please tell me which of these two has the higher inhibition at 3 μM: P or Q ? // return label of chosen record
Key: P
(P: 64%, Q: 34%)

====

- target.desc: MC4 receptor (Homo sapiens, UniProt P32245)
- Sequence (P32245 whole entry): as above
- assay.procedure: MC4 functional agonist potency (EC50), assay protocol E of US2005/0176772 / WO 2005/077935
- Type: cell-based
- applied.conditions: functional potency at the MC4 receptor
parameter.measured: EC50 (nM)

{"compound": "C[C@@H]1CN(C(=O)[C@@H]2CN(c3ccc(C#N)nn3)C[C@H]2c2ccc(C#N)cn2)C[C@H](C)[C@@]1(O)c1ccc(F)cc1 [Example 46]", "quantity.unit": "nM", "reported.result": 15}
{"compound": "CC1CN(C(=O)C2CN(c3ccc(=O)n(C)n3)CC2c2ccc(F)cn2)CC(C)C1(O)c1ccc(F)cc1 (stereo not shown) [Example 40]", "quantity.unit": "nM", "reported.result": 69.8}
{"compound": "C[C@@H]1CN(C(=O)[C@@H]2CN(c3cncc(F)c3)C[C@H]2c2ccc(Cl)cn2)C[C@H](C)[C@@]1(O)c1ccccn1 [Example 8]", "quantity.unit": "nM", "reported.result": 27.5}
{"compound": "CC1CN(C(=O)C2CN(c3ccc(C#N)nn3)CC2c2ccc(F)cn2)CC(C)C1(O)c1ccccc1 (stereo not shown) [Example 33]", "quantity.unit": "nM", "reported.result": 13.4}
{"compound": "COc1ccc([C@@H]2CN(c3cccnn3)C[C@H]2C(=O)N2C[C@@H](C)[C@](O)(c3ccc(F)cc3)[C@@H](C)C2)cn1 [Example 11]", "quantity.unit": "nM", "reported.result": 111}

P. C[C@@H]1CN(C(=O)[C@@H]2CN(c3ccc(Cl)nn3)C[C@H]2c2ccc(Cl)cn2)C[C@H](C)[C@@]1(O)c1ccccn1 [Example 31]
Q. C[C@@H]1CN(C(=O)[C@@H]2CN(c3ccc(=O)n(C)n3)C[C@H]2c2ccc(Cl)cn2)C[C@H](C)[C@@]1(O)C1CCCCC1 [Example 17]
R. C[C@@H]1CN(C(=O)[C@@H]2CN(c3ccc(C#N)nn3)C[C@H]2c2ccc(F)cn2)C[C@H](C)[C@@]1(O)c1ccc(Cl)cc1 [Example 32]
S. C[C@@H]1CN(C(=O)[C@@H]2CN(c3ccc(=O)[nH]n3)C[C@H]2c2ccc(F)cn2)C[C@H](C)[C@@]1(O)c1ccc(F)cc1 [Example 38]
T. C[C@@H]1CN(C(=O)[C@@H]2CN(c3ccc(Cl)nn3)C[C@H]2c2ccc(F)cn2)C[C@H](C)[C@@]1(O)c1ccccc1 [Example 35]
Exercise: Order the records so the highest EC50 appears first and the lowest last. Use the labels to give the ranking in the order requested.
Key: S, T, P, R, Q
